Test system: HOP-62 NSCLC
Pick from class 1 for active, class 0 for inactive when you respond.

For orientation, consider the following solved cases.
# Molecule, Assigned Label
measured = [
    ("CSC1=NCC2(S1)c1ccccc1N(C(=O)OC(C)(C)C)C2N1CCCCC1 (stereo not drawn)", "class 0"),
    ("Cc1cc(Cl)ccc1NS(=O)(=O)c1ccc(-c2cnc(C3CC3)o2)cc1", "class 0"),
]

--- query ---
Exercise: Assay outcome for O=C(Nc1ccccc1C(=O)N/N=C(\c1ccccc1)c1ccccn1)c1ccc(F)cc1 : what was it?
Key: class 1

---

Exercise: for every item that follows, state its recorded TGI.
System: SF-295 CNS
Method Summary: NCI tumour cell line growth inhibition, 48 h
Answers are plain numbers, in µM.

# Smiles Code, TGI / µM
rows = [
    ("Nc1ncnc2c1ncn2Cc1cccc(CCl)c1", 41.8),
    ("Nc1ccc(S(=O)(=O)Nc2cnc3c(Cl)cccc3n2)cc1", 737),
    ("N=C1C=C(N)C(=O)c2[nH]c(=O)ccc21", 31.2),
]

Turning now to a further molecule:
Reported TGI ( C=[CH][Sn]([CH]=C)([O]c1cccc2cccnc12)[O]c1cccc2cccnc12 ) = 19.4

---

I'd be grateful if you could share measured TGI for these entries.
Test system: OVCAR-3 ovarian
Method Summary: NCI tumour cell line growth inhibition, 48 h

Worked set:
# Molecule, TGI
measured = [
    ("CCOC(=O)C1COc2cc(-c3cc(=O)c4ccccc4o3)ccc2O1 (centres undefined)", "> 100 µM"),
    ("C(/Cc1ccc2c(c1)OCO2)=N\\NC1=NCCCN1", "> 100 µM"),
    ("C[C@@H]1C[C@]2(C[C@@H](C)C3[C@@H](CC4(C)[C@@H]5CCC6C(C)(C)OC(=O)C=C[C@]67C[C@@]5(CC[C@]34C)OO7)O2)OC1=O (some centres undefined)", "66.3 µM"),
    ("O=[N+]([O-])c1cccnc1-n1cnc2ccccc21", "> 100 µM"),
]

Please look at the items below and tell me TGI for each one, in order.
1. CCOC(=O)C(NC(=O)c1[nH]cnc1/N=N/N(C)C)C(C)C (centres undefined)
2. Cc1ccc(S(=O)(=O)n2cc(C#N)c(C#N)c2)cc1
3. COc1ccc(CCN=C2CCC(C(=O)NCCc3ccc(OC)c(OC)c3)N2)cc1OC (centres undefined)
4. COc1cccc(/C=C/C(=O)c2cc3c(N)c(C(=O)Nc4cccc5ccccc45)sc3nc2C)c1
5. Cc1nc(-c2cc3cc(Cl)ccc3oc2=O)cc2c1c(=O)oc1ccc(Cl)cc12
6. O=C(NCCCCCCCNC(=O)OCc1ccc2c(Cl)cc(Cl)c(O)c2n1)OCc1ccc2c(Cl)cc(Cl)c(O)c2n1
7. CC(=O)O[C@H]1CC[C@@]2(C)[C@H](CC[C@@H]3[C@@H]2CC[C@]2(C)[C@@H](c4ccc(=O)oc4)C[C@H]4O[C@]342)C1
8. c1ccc(-c2nnn(CCN3CCCCC3)n2)cc1

Key:
["> 100 µM", "46.2 µM", "> 100 µM", "2.07 µM", "> 100 µM", "0.838 µM", "1.67 µM", "> 100 µM"]

---

Would you mind telling me the reported TGI of each entry?
System: ACHN renal
Method Summary: NCI tumour cell line growth inhibition, 48 h

Completed entries (count: 3):
# Molecule, TGI
rows = [
    ("Nc1ccc(S(=O)(=O)Nc2cnc3c(Cl)cccc3n2)cc1", "> 750 µM"),
    ("CSc1ccc(/C=C2\\N=C(c3ccccc3)N(/N=C/c3cc4cc(C)ccc4nc3Cl)C2=O)cc1", "35.1 µM"),
    ("Cc1nc2ccc(Cl)cc2c2c1CCN2c1ccccc1", "62.4 µM"),
]

Please report TGI for every entry that follows.
1. CCOC(=O)C(=O)C(=O)NN(C)C1=NCCN1
2. O=C1C=CC2(C=C1)C[C@H](NC(=O)C(F)(F)F)C(=O)O2
3. CCOC(=O)C1(C(F)(F)F)N=C(CC)OC(N2CCOCC2)=N1 (stereo not given)
4. O=S(=O)(c1ccc(O)c(C=Nc2ccc(Cl)cc2)c1)c1ccc(O)c(C=Nc2ccc(Cl)cc2)c1

Key:
1. > 100 µM
2. > 100 µM
3. > 100 µM
4. > 100 µM
